// data source = ChEMBL document CHEMBL4765239

TARGET OR TEST SYSTEM: 5-hydroxytryptamine receptor 3A (Homo sapiens) (UniProt P46098)
Sequence (whole entry): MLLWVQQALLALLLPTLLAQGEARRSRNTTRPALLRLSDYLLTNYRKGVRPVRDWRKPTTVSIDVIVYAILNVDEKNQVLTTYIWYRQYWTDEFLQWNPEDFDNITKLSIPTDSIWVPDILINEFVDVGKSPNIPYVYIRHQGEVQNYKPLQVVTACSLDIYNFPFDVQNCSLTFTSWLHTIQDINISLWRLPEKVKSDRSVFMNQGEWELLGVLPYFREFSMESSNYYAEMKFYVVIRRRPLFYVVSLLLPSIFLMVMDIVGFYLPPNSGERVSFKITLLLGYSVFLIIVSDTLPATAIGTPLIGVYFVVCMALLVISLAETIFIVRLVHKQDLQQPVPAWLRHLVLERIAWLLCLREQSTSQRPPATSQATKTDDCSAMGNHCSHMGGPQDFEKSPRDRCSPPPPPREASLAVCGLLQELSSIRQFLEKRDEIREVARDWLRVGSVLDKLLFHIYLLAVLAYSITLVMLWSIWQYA
TEST SUMMARY: Displacement of [3H]BRL 43694 from human recombinant 5-HT3 receptor at 10 uM after 120 mins by scintillation counting analysis relative to control
Parameter: inhibition. Scope: all listed entries.

{"SMILES STR": "CNC1CN(c2nc3ncc(Br)cc3n3nnnc23)C1", "inhibition": "14%"}
{"SMILES STR": "CNC1CN(c2nc3ncc(Cl)cc3n3nnnc23)C1", "inhibition": "18%"}
{"SMILES STR": "CNC1CN(c2nc3ncc(Cl)cc3c3ncnn23)C1", "inhibition": "32%"}
{"SMILES STR": "NC1CN(c2nc3ncc(Cl)cc3n3cnnc23)C1", "inhibition": "24.5%"}

###

TARGET OR TEST SYSTEM: Histamine H4 receptor (Mus musculus, UniProt Q91ZY2)
Sequence (Q91ZY2 whole entry): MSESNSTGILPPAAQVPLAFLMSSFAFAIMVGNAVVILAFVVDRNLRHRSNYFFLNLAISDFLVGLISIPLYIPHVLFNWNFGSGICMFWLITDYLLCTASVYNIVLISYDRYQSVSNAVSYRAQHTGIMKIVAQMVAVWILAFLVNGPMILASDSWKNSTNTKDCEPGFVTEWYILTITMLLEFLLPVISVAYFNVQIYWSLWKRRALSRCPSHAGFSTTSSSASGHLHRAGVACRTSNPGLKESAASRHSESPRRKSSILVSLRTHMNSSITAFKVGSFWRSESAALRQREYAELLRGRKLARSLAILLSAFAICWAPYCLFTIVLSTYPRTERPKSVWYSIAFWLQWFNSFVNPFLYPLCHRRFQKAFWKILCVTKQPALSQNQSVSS
TEST SUMMARY: Displacement of [3H]-histamine from recombinant mouse histamine H4 receptor expressed in CHO-K1 cell membranes measured after 30 mins by microbeta scintillation counting method
Set-up: species or system Cell membrane
pIC50: −log10 of the molar value.

{"SMILES STR": "CNC1CN(c2nc3ncc(Br)cc3n3nnnc23)C1", "pIC50": 6.54}

###

TEST SUMMARY: Protein binding in human plasma
Format: ADME, cell-free
ASSAY SETUP: read-out: PPB (converted)

{"SMILES STR": "CNC1CN(c2nc3ncc(Br)cc3n3nnnc23)C1", "fraction unbound": 0.265}

###

TEST SUMMARY: Basicity constant, pKa of the compound
Type: physicochemical
READOUT: pKa

{"SMILES STR": "CN1CCN(c2nc3ncc(Cl)cc3n3cnnc23)CC1", "OBSERVED RESULT": 9.9}
{"SMILES STR": "Clc1cnc2nc(N3CCNCC3)c3nncn3c2c1", "OBSERVED RESULT": 8.9}

###

Below, each entry is listed with its recorded pIC50.
TARGET OR TEST SYSTEM: Histamine H4 receptor (Homo sapiens)
Sequence (Q9H3N8 whole entry): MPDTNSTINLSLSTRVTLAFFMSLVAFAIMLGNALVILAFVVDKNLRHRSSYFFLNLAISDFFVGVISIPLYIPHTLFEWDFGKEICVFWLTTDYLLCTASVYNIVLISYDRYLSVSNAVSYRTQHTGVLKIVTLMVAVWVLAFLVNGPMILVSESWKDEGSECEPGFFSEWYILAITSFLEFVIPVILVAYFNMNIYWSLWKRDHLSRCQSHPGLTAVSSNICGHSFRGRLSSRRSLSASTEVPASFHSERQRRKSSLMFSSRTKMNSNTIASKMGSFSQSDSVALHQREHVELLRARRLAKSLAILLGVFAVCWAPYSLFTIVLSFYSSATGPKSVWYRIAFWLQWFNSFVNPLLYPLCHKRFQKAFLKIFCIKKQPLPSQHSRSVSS
TEST SUMMARY: Displacement of [3H]-histamine from recombinant human histamine H4 receptor expressed in CHO-K1 cell membranes measured after 30 mins by microbeta scintillation counting method
Set-up: species or system Cell membrane
pIC50: −log10 of the molar value.
READOUT: pIC50

{"SMILES STR": "NC1CN(c2nc3ncc(Cl)cc3n3cnnc23)C1", "READOUT": "pIC50", "OBSERVED RESULT": 5.28}
{"SMILES STR": "CN1CCN(c2nc3ccccc3n3cnnc23)CC1", "READOUT": "pIC50", "OBSERVED RESULT": 5.64}
{"SMILES STR": "CNC1CN(c2nc3ncc(Br)cc3n3nnnc23)C1", "READOUT": "pIC50", "OBSERVED RESULT": 7.57}
{"SMILES STR": "CN1CCN(c2nc3ccc([N+](=O)[O-])cc3n3cnnc23)CC1", "READOUT": "pIC50", "OBSERVED RESULT": 6.77}
{"SMILES STR": "CCOc1nc2nc(N3CCN(C)CC3)c3nncn3c2cc1Cl", "READOUT": "pIC50", "OBSERVED RESULT": 6.28}
{"SMILES STR": "CN(C)[C@@H]1CCN(c2nc3ncc(Cl)cc3n3cnnc23)C1", "READOUT": "pIC50", "OBSERVED RESULT": 5.32}
{"SMILES STR": "CN1CCN(c2nc3ncc(Cl)cc3n3cnnc23)CC1", "READOUT": "pIC50", "OBSERVED RESULT": 7.11}
{"SMILES STR": "CN(C)C1CN(c2nc3ncc(Cl)cc3n3cnnc23)C1", "READOUT": "pIC50", "OBSERVED RESULT": 5.92}
{"SMILES STR": "N[C@@H]1CCN(c2nc3ncc(Cl)cc3n3cnnc23)C1", "READOUT": "pIC50", "OBSERVED RESULT": 5.20}
{"SMILES STR": "CNC1CN(c2nc3ncc(Cl)cc3n3nnnc23)C1", "READOUT": "pIC50", "OBSERVED RESULT": 7.28}
